- system-name: Ga3PDHase (phosphorylating NAD+-dependent glyceraldehyde-3-phosphate dehydrogenase, EC 1.2.1.12) (Triticum aestivum)
- Construct: recombinant wheat gapC (NCBI EF592180), homotetramer, E. coli
- Sequence (A5YVV3 1-337): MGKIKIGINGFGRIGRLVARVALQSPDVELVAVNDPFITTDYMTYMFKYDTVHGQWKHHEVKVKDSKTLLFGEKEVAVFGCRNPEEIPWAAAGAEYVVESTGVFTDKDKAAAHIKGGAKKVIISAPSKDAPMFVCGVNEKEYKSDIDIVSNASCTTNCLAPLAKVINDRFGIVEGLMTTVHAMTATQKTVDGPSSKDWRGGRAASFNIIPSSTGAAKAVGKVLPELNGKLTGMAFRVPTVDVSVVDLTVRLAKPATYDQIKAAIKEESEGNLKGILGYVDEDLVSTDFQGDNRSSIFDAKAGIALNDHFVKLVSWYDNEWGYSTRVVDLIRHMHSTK
- measurement-description: Kd from protection against H2O2 inactivation in presence of NAD+ (Mildvan and Leigh plot); S0.[…] by enzyme kinetics
measurement-kind: Kd (µM)
Express your answer in µM, writing the number without its unit.

Q: Quick one: give measured Kd for O=C[C@H](O)COP(=O)(O)O [glyceraldehyde-3-phosphate]
Ans: 115

###

- system-name: np-Ga3PDHase (non-phosphorylating NADP+-dependent glyceraldehyde-3-phosphate dehydrogenase, EC 1.2.1.9) (Triticum aestivum)
- Construct: recombinant wheat enzyme (NCBI DQ268762), pRSETB/TagapN, E. coli
- Sequence (Q8LK61 whole entry): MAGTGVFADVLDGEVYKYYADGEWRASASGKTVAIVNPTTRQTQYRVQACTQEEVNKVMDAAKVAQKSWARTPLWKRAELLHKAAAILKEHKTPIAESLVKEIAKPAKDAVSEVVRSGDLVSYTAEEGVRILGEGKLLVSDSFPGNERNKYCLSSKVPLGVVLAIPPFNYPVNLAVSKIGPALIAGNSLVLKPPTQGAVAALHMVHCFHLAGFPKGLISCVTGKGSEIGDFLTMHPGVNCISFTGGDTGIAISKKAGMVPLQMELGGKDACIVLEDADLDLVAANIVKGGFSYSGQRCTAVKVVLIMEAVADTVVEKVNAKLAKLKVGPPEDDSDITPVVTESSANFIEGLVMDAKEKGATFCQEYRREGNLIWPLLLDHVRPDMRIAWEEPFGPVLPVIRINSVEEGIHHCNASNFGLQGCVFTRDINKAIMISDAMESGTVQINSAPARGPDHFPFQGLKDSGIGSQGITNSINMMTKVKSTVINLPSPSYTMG
- measurement-description: Kd from protection against H2O2 inactivation of purified enzyme (Mildvan and Leigh plot)
measurement-kind: Kd (nM)
Express your answer in nM, writing the number without its unit.

Q: Quick one: give measured Kd for NC(=O)c1ccc[n+]([C@@H]2O[C@H](COP(=O)([O-])OP(=O)(O)OC[C@H]3O[C@@H](n4cnc5c(N)ncnc54)[C@H](OP(=O)(O)O)[C@@H]3O)[C@@H](O)[C@H]2O)c1 [NADP^+]
Ans: 2500
